// note: IC50 values for BTK (Homo sapiens) were reported in different studies
readout: IC50

INSERT INTO assay_data (compound, assayedsystem, readout, recordedvalue) VALUES
  ('C=CC(=O)N1CC(CNc2nc(Nc3cccs3)nc3ccsc23)C1', 'BTK (Homo sapiens)', 'IC50', '≤ 0.05 µM'),
  ('C=CC(=O)N1C[C@@H]2C[C@H]1[C@@H](n1nc(-c3ccc(C(=O)Nc4ncccc4C(F)(F)F)cc3)c3c(N)ncnc31)C2', 'BTK (Homo sapiens)', 'IC50', '0.0052 µM'),
  ('C=CC(=O)N1CCC[C@@H](n2nc(-c3cccc(Oc4ccccc4)c3)c3cncnc32)C1', 'BTK (Homo sapiens)', 'IC50', '< 0.1 µM'),
  ('O=C(Nc1cccc(-c2cc(Nc3ccc(C(=O)N4CCOCC4)cn3)c3nccn3n2)c1CO)c1ccc(C2CC2)cc1', 'BTK (Homo sapiens)', 'IC50', '0.013 µM'),
  ('COCCN(C)C/C=C/C(=O)N(C)c1cccc(-n2c(=O)n(-c3ccc(Oc4ccccc4)cc3)c3c(N)ncnc32)c1', 'BTK (Homo sapiens)', 'IC50', '< 0.1 µM'),
  ('CC(C)OC(=O)Nc1ccc(-c2cn3ncc4c3nc2NCc2cc(F)cnc2O[C@@H](C)CNC4=O)cc1', 'BTK (Homo sapiens)', 'IC50', '> 10 µM'),
  ('CN(C/C=C/C(=O)N1CCOc2ccc(-n3c(=O)n(-c4ccc(Oc5cccc(F)c5)cc4)c4c(N)ncnc43)cc21)C1CC1', 'BTK (Homo sapiens)', 'IC50', '< 0.1 µM'),
  ('Cc1ccc2c(N)c(C(N)=O)nnc2c1-c1ccn2cncc2c1', 'BTK (Homo sapiens)', 'IC50', '0.00398 µM'),
  ('Cc1cc(-c2ncnc3[nH]c(-c4cnn(C)c4)cc23)ccc1C(CO)NC(=O)c1cc2c(s1)CCOC2 (stereo not drawn)', 'BTK (Homo sapiens)', 'IC50', '< 0.01 µM'),
  ('COc1ncc(-c2cnc3[nH]cc(C(=O)c4c(F)ccc(NS(=O)(=O)N5CCCC5)c4F)c3c2)cn1', 'BTK (Homo sapiens)', 'IC50', '≤ 10 µM'),
  ('C=CC(=O)Nc1cc(-n2c(=O)ccc3cnc4ccc(-c5ccsc5)cc4c32)ccc1C', 'BTK (Homo sapiens)', 'IC50', '0.039 µM'),
  ('C=CC(=O)N1CCc2c(-c3c(F)cc(C(N)=O)c4[nH]c5c(c34)CC3(CC5)CC3)cccc2[C@@H]1C (atropisomer, axis not shown)', 'BTK (Homo sapiens)', 'IC50', '< 0.01 µM'),
  ('COc1cc(NCC(=O)N[C@@H]2CCCN(c3ncnc4[nH]ccc34)C2)cc(C(F)(F)F)c1', 'BTK (Homo sapiens)', 'IC50', '0.1 to 0.999 µM'),
  ('Cc1cc(-c2ncnc3cc[nH]c23)ccc1C(C)NC(=O)c1cnc(C(C)(C)C)s1 (stereo not drawn)', 'BTK (Homo sapiens)', 'IC50', '0.01 to 0.099 µM'),
  ('CCC[C@@H](Nc1ccccc1C(C)C)C(=O)N[C@@H]1CCCN(c2ncnc3[nH]ccc23)C1', 'BTK (Homo sapiens)', 'IC50', '0.1 to 0.999 µM');

----------
Target or system UniProtKB Q06187; metric IC50; compiled from varied reports.
readout: IC50

INSERT INTO results (molecule, recordedvalue) VALUES
  ('CC#CC(=O)N1C2CC[C@@H](C2)C1c1nc(-c2ccc(Oc3ccccc3)cc2)c2c(N)nccn12 (stereo partly shown)', '0.039 µM'),
  ('Cn1cc(-c2cnc3[nH]cc(C(=O)c4cc(NS(=O)(=O)c5cccc(OC(F)(F)F)c5)ccc4F)c3c2)cn1', '≤ 10 µM'),
  ('O=C(CNc1cc(F)cc(C(F)(F)F)c1)N[C@@H]1CCCN(c2ncnc3[nH]ccc23)C1', '< 0.1 µM'),
  ('Cn1cc(-c2cn3nccc3c(-c3ccc(CNC(=O)c4nnc(C(C)(C)C)o4)c(C(F)F)c3)n2)cn1', '< 0.001 µM'),
  ('C#Cc1c(-c2ccc(Oc3ccccc3)cc2)c2c(N)ncnc2n1[C@@H]1CCN(C(=O)/C=C/CN(C)C2CC2)C1', '< 0.1 µM'),
  ('Cc1ccc2c(N)c(C(N)=O)nnc2c1-c1cc(F)c2nc[nH]c2c1', '0.0316 µM'),
  ('O=C(CNc1cc(Cl)cc(Cl)c1)N1CCC[C@@H](N(CCO)c2ncnc3[nH]ccc23)C1', '< 0.1 µM'),
  ('Cc1cc(-c2cc(Nc3ccc(N4CCN(C)CC4)cn3)ncn2)ccc1CNC(=O)N1CC(OC(C)(C)C)C1', '< 0.01 µM'),
  ('Cc1cc(-c2ncnc3nc(N4CC(N(C)C)C4)[nH]c23)ccc1CNC(=O)c1cnc(C(C)(C)C)s1', '< 0.01 µM'),
  ('C=CC(=O)N1CC[C@@H](Nc2nccc(Nc3nc4ccc(Oc5ccccc5)nc4s3)n2)C1', '0.281 µM'),
  ('Cc1cnc(-c2ccc(-c3ccc(NC(=O)Nc4ccc(F)c(F)c4)cc3F)c3c2C(=O)NC3)[nH]1', '0.0056 µM'),
  ('C=CC(=O)Nc1cccc(-c2c(F)cc(C(N)=O)c3[nH]c4c(c23)CCCCC4)c1', '0.01 to 0.1 µM'),
  ('C=CC(=O)Nc1cccc(-c2cc(-c3cncc(Cl)c3)cc3cnc(N)nc23)c1', '< 0.1 µM'),
  ('Cc1cc(-c2nc(C(=O)Nc3cn4cc(C(C)(C)O)nc4cc3N3CCC(CO)CC3)co2)ccn1', '0.0212 µM'),
  ('Nc1ncnc(N2CCC3CCN(C(=O)CNc4cc(Cl)cc(Cl)c4)CC32)c1F (stereo not shown)', '< 0.1 µM'),
  ('C=CC(=O)N1CCC(n2nc(-c3ccc(Cl)cc3)c3c(N)ncnc32)CC1', '< 0.1 µM');

----------
Dear all, I have gathered published pIC50 values for BTK (Homo sapiens, UniProt Q06187); the list follows.
pIC50: −log10 of the molar value.
readout: pIC50

INSERT INTO results (compound, recordedvalue) VALUES
  ('O=C(CNC(=O)C1CCCCC1)NC1CCCN(c2ncnc3[nH]ccc23)C1 (stereo not shown)', '5.00 to 6.00'),
  ('COCCOc1ccc(-n2c(=O)n(-c3ccc(C)c(OC)c3)c3c(N)ncnc32)cc1N(C)C(=O)/C=C/CN(C)C', '6.00 to 7.00'),
  ('O=C(CNc1ccc(Cl)c(Cl)c1)N[C@@H]1CCCN(c2ncnc3[nH]ccc23)C1', '6.00 to 7.00'),
  ('CN(C(=O)/C=C/CN(C)[C@H]1CCOC1)c1cccc(-n2c(=O)n(-c3ccc(Oc4ccccc4)cc3)c3c(N)ncnc32)c1', '> 7.00'),
  ('COc1cnc2[nH]cc(C(=O)c3cccc(NS(=O)(=O)C4CCCC4)c3)c2c1', '≥ 5.00'),
  ('C=CC(=O)N1CC2CC1C(n1nc(-c3ccc(C(=O)Nc4cccc(Cl)c4)cc3)c3c(N)ncnc31)C2 (stereo not shown)', 8.33),
  ('O=C(N[C@@H](C(=O)N[C@@H]1CCCN(c2ncnc3[nH]ccc23)C1)C1CC1)c1ccccc1O', '6.00 to 7.00');

----------
Dear all, I have gathered published IC50 values for BTK (Homo sapiens, UniProt Q06187); the list follows.
readout: IC50

INSERT INTO measurements (molecule, assayedsystem, recordedvalue) VALUES
  ('Nc1nccn2c(C3CCC(O)CC3)nc(-c3ccc(Oc4cccc(Cl)c4F)cc3)c12 (stereo not drawn)', 'BTK (Homo sapiens, UniProt Q06187)', '≤ 10 nM'),
  ('C=CC(=O)NC1C2CCC1CC(n1cc(-c3ccc(Oc4ccccc4)cc3)c3c(N)n[nH]c(=O)c31)C2 (stereo not drawn)', 'BTK (Homo sapiens, UniProt Q06187)', '10 to 1000 nM'),
  ('Cc1cc(CN2CCOCC2)cc(Nc2ncc(C)s2)n1', 'BTK (Homo sapiens, UniProt Q06187)', '> 1000 nM'),
  ('Cc1ncc(COc2cc(F)cc(Oc3ccc(-c4nn(C[C@H]5CCCN5C(=O)/C=C/CN(C)C)c5ncnc(N)c45)cc3)c2)cn1', 'BTK (Homo sapiens, UniProt Q06187)', '40 nM'),
  ('Cc1cc(-c2ccnc(Nc3cnn(C4CCN(C)CC4)c3)n2)ccc1CN1Cc2nc(C(C)(C)C)sc2C1=O', 'BTK (Homo sapiens, UniProt Q06187)', '< 10 nM'),
  ('CCCS(=O)(=O)Nc1ccc(F)c(C(=O)c2c[nH]c3ncc(-c4ccc(N)nc4)cc23)c1F', 'BTK (Homo sapiens, UniProt Q06187)', '≤ 10000 nM'),
  ('Cc1cc(-c2cc(Nc3cc4n(n3)CCS(=O)(=O)C4)ncn2)ccc1CNC(=O)c1cnn(C(C)(C)C)c1', 'BTK (Homo sapiens, UniProt Q06187)', '< 10 nM'),
  ('CC#CC(=O)N[C@H]1C[C@@H](F)CN(c2c(F)cc(C(N)=O)c3[nH]c(C)c(C)c23)C1', 'BTK (Homo sapiens, UniProt Q06187)', '< 10 nM'),
  ('C=CC(=O)N(CC)c1cccc(Nc2ncc3cc(-c4c(C)ccn(-c5ncco5)c4=O)ccc3n2)c1', 'BTK (Homo sapiens, UniProt Q06187)', '100 to 1000 nM'),
  ('CC(C)c1ccnc(NC(=O)c2ccc(-c3nn([C@@H]4CCN(C(=O)/C=C/CN(C)C)C4)c4ncnc(N)c34)cc2)c1', 'BTK (Homo sapiens, UniProt Q06187)', '< 1 nM'),
  ('CCn1cc(Nc2nccc(-c3ccc(CNC(=O)c4cnc(C(C)(C)C)s4)c(C)c3)n2)cn1', 'BTK (Homo sapiens, UniProt Q06187)', '< 10 nM'),
  ('CN(c1ncnc(N)c1C#N)[C@H]1CCCN(C(=O)CNc2cc(Cl)cc(Cl)c2)C1', 'BTK (Homo sapiens, UniProt Q06187)', '> 10000 nM'),
  ('CCN(C(C)C)S(=O)(=O)c1ccccc1NCC(=O)N[C@@H]1CCCN(c2ncnc3[nH]ncc23)C1', 'BTK (Homo sapiens, UniProt Q06187)', '< 100 nM'),
  ('CN(C(=O)/C=C/CN(C)C1CC1)c1ccc(-n2c(=O)n(-c3ccc(Oc4ccccc4)cc3)c3c(N)ncnc32)cc1', 'BTK (Homo sapiens, UniProt Q06187)', '< 100 nM'),
  ('C[C@@H]1[C@@H](Nc2ncnc3[nH]ncc23)CCCN1C(=O)CNc1cc(Cl)cc(Cl)c1', 'BTK (Homo sapiens, UniProt Q06187)', '100 to 999 nM'),
  ('CC1CC2CCN(C(=O)CNc3cc(Cl)cc(Cl)c3)CC2N1c1ncnc2[nH]ccc12 (stereo not drawn)', 'BTK (Homo sapiens, UniProt Q06187)', '< 100 nM'),
  ('O=C(N[C@H]1CCCc2cc(-c3ncnc4[nH]ccc34)ccc21)c1cc2c(s1)CCCC2', 'BTK (Homo sapiens, UniProt Q06187)', '< 10 nM'),
  ('C=CC(=O)N1CC[C@]2(C1)C[C@@H](n1c(NC(=O)c3ccc(-c4cnco4)s3)nc3ccc(CN4CCCC4)cc31)C2', 'BTK (Homo sapiens, UniProt Q06187)', '8.41 nM'),
  ('CN(C/C=C/C(=O)Nc1cccc(-n2c(=O)n(-c3ccc(Oc4ccccc4)cc3)c3c(N)ncnc32)c1)C1CCC1', 'BTK (Homo sapiens, UniProt Q06187)', '< 100 nM'),
  ('O=C(CNc1cc(Cl)cc(Cl)c1)N1CCC[C@@H](Nc2ncnc3[nH]cnc23)C1', 'BTK (Homo sapiens, UniProt Q06187)', '1000 to 10000 nM'),
  ('COc1cc(-c2nn(C3Cc4ccccc4C3)c3ncnc(N)c23)ccc1C', 'BTK (Homo sapiens, UniProt Q06187)', '57.1 nM'),
  ('CN(C)C/C=C/C(=O)N1CCC[C@@H](n2cc(-c3ccc(Oc4c(F)cccc4F)cc3)c3c(N)n[nH]c(=O)c32)C1', 'BTK (Homo sapiens, UniProt Q06187)', '10 to 1000 nM'),
  ('C=CC(=O)N1CC[C@@H](n2nc(-c3ccc(Oc4ccccc4)cc3)c3cncnc32)C1', 'BTK (Homo sapiens, UniProt Q06187)', '< 100 nM'),
  ('CC#CC(=O)N1C2C[C@@H](C1c1nc(-c3ccc(C(C)(O)c4ccccc4)cc3)c3c(N)nccn13)N(C(C)C)C2 (stereo partly drawn)', 'BTK (Homo sapiens, UniProt Q06187)', '21 nM'),
  ('NC(=O)c1nnc2c(-c3ccc4nc(-c5ccsc5)[nH]c4c3)cccc2c1N', 'BTK (Homo sapiens, UniProt Q06187)', '158 nM'),
  ('COc1cccc(C(=O)c2c[nH]c3ncc(-c4cccnc4)cc23)c1F', 'BTK (Homo sapiens, UniProt Q06187)', '≤ 10000 nM'),
  ('CC#CC(=O)N1C[C@H]2[C@@H]([C@H]1c1nc(-c3ccc(C(C)(O)c4ccccc4)cc3)c3c(N)nccn13)C2(C)C (stereo partly drawn)', 'BTK (Homo sapiens, UniProt Q06187)', '46 nM'),
  ('C=CC(=O)N1CCCC(c2nc(-c3ccc(Oc4ccccc4)cc3)c(C(N)=O)o2)C1 (stereo not drawn)', 'BTK (Homo sapiens, UniProt Q06187)', '< 500 nM'),
  ('CN1CCN(c2cccc(NCC(=O)NC3CCCN(c4ncnc5[nH]ccc45)C3)c2)CC1 (stereo not drawn)', 'BTK (Homo sapiens, UniProt Q06187)', '> 10000 nM'),
  ('COc1cc(C(=O)Nc2cc(C(F)(F)F)ccn2)ccc1-c1nc([C@]2(C)CC[C@H]3CCC(=O)N3C2)n2ccnc(N)c12', 'BTK (Homo sapiens, UniProt Q06187)', '0.33 nM');
